- Procedure summary: In vitro metabolic stability in liver microsomes (calculated Fmax)
- Format: in vitro ADME, human
- Measurement conditions: 1 μM, calculated maximal oral bioavailability
Measure name: Human liver microsome Fmax (%)

Cc1cnc(-c2cc(OC(C)C(C)O)cc(C(=O)N[C@H](C)c3cnc(C(F)(F)F)nc3)c2)s1 (single isomer, unassigned) [Example 339] : 94
Cc1cnc(-c2cc(OC(C)C(C)O)cc(C(=O)N[C@H](C)c3cnc(C(F)(F)F)nc3)c2)s1 (single isomer, unassigned) [Example 340] : 90
Cc1cnc(-c2cc(O[C@H]3CCOC3)cc(C(=O)N[C@H](C)c3cnc(C(F)(F)F)nc3)c2)s1 : 67
Cc1cnc(-c2cc(OC(C)C(C)O)cc(C(=O)N[C@H](C)c3ccc(C(F)(F)F)nn3)c2)s1 (single isomer, unassigned) : 74
